We begin with a simple list: items and their reported relative cell viability.
system: K562; experiment: relative cell viability (ATPlite) vs untreated control, with imatinib (fraction); higher = less toxic; settings: 1 µM; 72 h; imatinib 0.125 µM
ASSAY READOUT: relative cell viability

> print(dat)
                                   compound  tested.on  value.observed
1  NC(=O)c1ccc2nc(-c3ccc(Oc4ccc(Cl)cc4)cc3)[nH]c2c1       K562           0.681
2      COc1ccc2nc3n[nH]c(C)c3c(NCCOCCO)c2c1       K562           0.843
3  Nc1ncnc2c1c(I)cn2[C@@H]1O[C@H](CO)[C@@H](O)[C@H]1O       K562           0.702
4  O=C(Nc1ccc(-c2cn[nH]c2)cc1)C1COc2ccccc2O1 (stereo unspecified)       K562           0.687
5  O=C1C(=Cc2ccc(O)cc2)C2=Nc3ccccc3C2=C1C1=C2C(=Nc3ccccc32)C(=Cc2ccc(O)cc2)C1=O       K562           0.821
6      O=C(Nc1ccc(Cl)cc1)c1ccccc1NCc1ccncc1       K562           0.802

---

test system: K562; experiment: relative cell viability (ATPlite) vs untreated control (fraction); higher = less toxic; details: 1 µM; 72 h
ASSAY READOUT: relative cell viability

> print(dat)
                                   compound  value.observed
1                 CC(=O)c1ccc(N2CCOCC2)cc1O           0.878
2  Cn1c2ccccc2c2c3c(c4c5ccccc5n(CCC#N)c4c21)CNC3=O           0.854
3  COc1cc2ncnc(Nc3ccc(Oc4ccccc4)cc3)c2cc1OC           0.839
4  O=c1[nH][nH]c2nnc(-c3c(-c4ccccc4)nn4ccccc34)cc12 [ERK Inhibitor II, Negative control]           0.833
5  CN(C)CCCn1cc(C2=C(c3c[nH]c4ccccc34)C(=O)NC2=O)c2ccccc21 [Bisindolylmaleimide I]           0.169
6  CCOc1nc(NC(=O)Cc2cc(OC)ccc2OC)cc(N)c1C#N           0.983
7                 Cn1sc(=O)n(Cc2ccccc2)c1=O           0.793
8  NC(=O)c1ccc2nc(-c3ccc(Oc4ccc(Cl)cc4)cc3)[nH]c2c1           0.778
9                        Cc1ncc2ccccc2c1C#N           0.917

---

test system: IMR-90; assay: relative cell viability (ATPlite) vs untreated control (fraction); higher = less toxic; details: 1 µM; 72 h
Mark T for relative cell viability under 1, F if at or over.

> print(dat)
                                test.smiles  group.label
1  c1cc(-c2cnn3cc(-c4ccc(OCCN5CCCCC5)cc4)cnc23)ccn1            T
2           Cc1cc(C=C2C(=O)C=CC2=O)cc(C)c1O            T
3  CCCCCCOC(=O)[C@]1(O)C[C@@H]2O[C@@]1(C)n1c3ccccc3c3c4c(c5c6ccccc6n2c5c31)C(=O)NC4            F
4           NC(=O)Nc1sc(-c2ccccc2)cc1C(N)=O            T
5  c1nc2c(NC3CCCCC3)nc(Nc3ccc(N4CCOCC4)cc3)nc2[nH]1            T
6  Nc1ccc(-c2cccc3c(=O)cc(N4CCOCC4)oc23)cc1            T

---

test system: K562; experiment: relative cell viability (ATPlite) vs untreated control, with imatinib (fraction); higher = less toxic; conditions: 1 µM; 72 h; imatinib 0.125 µM

MOLECULE	relative cell viability
Cn1c2ccccc2c2c3c(c4c5ccccc5n(CCC#N)c4c21)CNC3=O	0.739
CCCOc1ccc(/C=C2/SC(=O)NC2=O)cc1 [PIM1/2 Kinase Inhibitor VI]	0.802
O=C1NC(=O)C(c2c[nH]c3ccccc23)=C1c1c[nH]c2ccccc12 [Bisindolylmaleimide IV]	0.851
CO[C@H]1C[C@@H]2CC[C@@H](C)[C@@](O)(O2)C(=O)C(=O)N2CCCC[C@H]2C(=O)O[C@H]([C@H](C)C[C@@H]2CC[C@@H](O)[C@H](OC)C2)CC(=O)[C@H](C)/C=C(\C)[C@@H](O)[C@@H](OC)C(=O)[C@H](C)C[C@H](C)/C=C/C=C/C=C/1C [Rapamycin]	0.481
N#CCCc1ccc2c(c1)-c1[nH]c3ccc([N+](=O)[O-])cc3c1CC(=O)N2 [Alsterpaullone, 2-Cyanoethyl]	0.153
O=C(c1cc2cc(O)ccc2[nH]1)c1cc2cc(O)ccc2[nH]1 [Flt-3 Inhibitor II]	0.418
O=C1Cc2c([nH]c3ccc([N+](=O)[O-])cc23)-c2ccccc2N1 [Alsterpaullone]	0.812
COc1ccc(-c2cnc3c(-c4ccsc4)cnn3c2)cc1 [VEGF Receptor 2 Kinase Inhibitor IV]	0.726
CSc1nc(-c2ccnc(NC(C)c3ccccc3)c2)c(-c2ccc(F)cc2)[nH]1 (stereo unspecified) [p38 MAP Kinase Inhibitor III]	0.735
c1ccc2c(-c3ccncc3)c[nH]c2c1 [Rho Kinase Inhibitor III, Rockout]	0.683
O=C1Nc2ccc(Br)cc2/C1=C/c1cc2c([nH]1)CCCC2 [VEGF Receptor 2 Kinase Inhibitor II]	0.782
CN1C(=O)C(c2c[nH]c3ccccc23)=C(c2c[nH]c3ccccc23)C1=O [Bisindolylmaleimide V]	0.77
Cc1cc(C=C2C(=O)C=CC2=O)cc(C)c1O	0.595
COc1cc2ncnc(Nc3ccc(O)c(Br)c3)c2cc1OC [JAK3 Inhibitor II]	0.717
Nc1nc(Nc2ccc(S(N)(=O)=O)cc2)nn1C(=S)Nc1c(F)cccc1F [Cdk1/2 Inhibitor III]	0.0471
COc1ccc(OC)c2c(=S)c3ccccc3[nH]c12	0.795

---

tested on: K562; assay: relative cell viability (ATPlite) vs untreated control (fraction); higher = less toxic; conditions: 1 µM; 72 h
Where a name gives a salt, the structure may show the parent alone.
Mark Condition met for relative cell viability under 0.9, Condition not met if at or over.

> print(dat)
                                    compound        group.label
 1  COc1cc2ncnc(Nc3cccc(O)c3)c2cc1OC [WHI-P180, Hydrochloride]      Condition met
 2          c1ccc(-c2n[nH]c3c2oc2ccccc23)cc1      Condition met
 3    CC(C)n1cnc2c(NCc3ccccc3O)nc(NCCCO)nc21      Condition met
 4     O=c1cc(N2CCNCC2)oc2c(-c3ccccc3)cccc12      Condition met
 5      COc1cc2ncnc(Nc3ccc(O)c(Br)c3)c2cc1OC      Condition met
 6  COc1cc2ncn(-c3cc(OCc4ccccc4S(C)(=O)=O)c(C#N)s3)c2cc1OC      Condition met
 7  O=C1NC(=O)C(c2c[nH]c3ccccc23)=C1c1c[nH]c2ccccc12 [Bisindolylmaleimide IV]  Condition not met
 8       Cn1cnc2cc3c(Nc4cccc(Br)c4)ncnc3cc21  Condition not met
 9         O=C(Nc1ccncc1)Nc1c(Cl)cc(Cl)cc1Cl      Condition met
10  COc1cc2c(cc1OC)-c1[nH]nc(Nc3cccc(F)c3)c1C2      Condition met
11  O=C1NCCc2[nH]c(-c3ccnc(-c4cnc5ccccc5c4)c3)cc21      Condition met
12   COc1ccc(COc2ccc(Cc3cnc(N)nc3N)cc2OC)cc1      Condition met
13  COc1ccc(CNC(=O)Nc2ncc([N+](=O)[O-])s2)cc1      Condition met
14  O=C(c1ccc(Nc2nccc(-c3cc4ccccc4s3)n2)cc1)N1CCC(N2CCCC2)CC1      Condition met
15  Nc1ncnc2c1c(I)cn2[C@@H]1O[C@H](CO)[C@@H](O)[C@H]1O      Condition met
16  Oc1cccc(-c2nc(N3CCOCC3)c3oc4ncccc4c3n2)c1      Condition met
17   Cc1cc(Nc2nc(-c3ccccc3)nc3ccccc23)n[nH]1  Condition not met

---

We begin with a simple list: items and their reported relative cell viability.
test system: IMR-90; test: relative cell viability (ATPlite) vs untreated control (fraction); higher = less toxic; conditions: 1 µM; 72 h
Structures can show the parent of a compound that is named as a salt.
ASSAY READOUT: relative cell viability

> print(dat)
                                   molecule  tested.on  value.observed
1  O=C(O)c1ccc2c3c1cccc3c(=O)n1c3ccccc3nc21     IMR-90           0.961
2          c1ccc(-c2n[nH]c3c2oc2ccccc23)cc1     IMR-90           0.943
3  CSc1nc(-c2ccnc(NC(C)c3ccccc3)c2)c(-c2ccc(F)cc2)[nH]1 (centres undefined)     IMR-90            1.03
4  COc1cc2ncnc(Nc3cccc(O)c3)c2cc1OC [WHI-P180, Hydrochloride]     IMR-90           0.912
5    CC(C)n1cnc2c(NCc3ccccc3O)nc(NCCCO)nc21     IMR-90            1.04
6                        Cc1ncc2ccccc2c1C#N     IMR-90           0.955
7  COc1cc2ncnc(Nc3ccc(NC(=O)c4ccccc4)cc3)c2cc1OC     IMR-90            0.92
8  O=C1NC(=O)c2c1c1c3ccccc3[nH]c1n1cncc21 [Isogranulatimide]     IMR-90            1.01
9  O=C(c1ccc(Nc2nccc(-c3cc4ccccc4s3)n2)cc1)N1CCC(N2CCCC2)CC1     IMR-90           0.972
